# TARGET_DESC: 5-hydroxytryptamine receptor 1D (Homo sapiens, UniProt P28221)
# Sequence (P28221 whole entry): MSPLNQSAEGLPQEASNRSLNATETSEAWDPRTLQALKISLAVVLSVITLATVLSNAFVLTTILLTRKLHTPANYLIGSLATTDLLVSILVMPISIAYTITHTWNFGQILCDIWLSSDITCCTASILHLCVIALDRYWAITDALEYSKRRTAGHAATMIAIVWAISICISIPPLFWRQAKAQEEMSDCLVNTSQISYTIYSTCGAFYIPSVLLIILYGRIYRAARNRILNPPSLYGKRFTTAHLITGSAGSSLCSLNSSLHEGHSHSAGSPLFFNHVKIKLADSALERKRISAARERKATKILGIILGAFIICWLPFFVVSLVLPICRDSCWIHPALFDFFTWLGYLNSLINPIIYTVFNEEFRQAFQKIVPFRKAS
QUANTITY: Ki (µM)
Please respond with the number in µM and leave the unit unwritten.

**Q:** Missing value: Ki, 5-hydroxytryptamine receptor 1D (Homo sapiens, UniProt P28221), entry "COC(=O)CCCCCN1CCC(CNC(=O)c2c3n(c4ccccc24)CCCO3)CC1" . Fill in?
**A:** 3.16

----------
# TARGET_DESC: 5-hydroxytryptamine receptor 2A (Homo sapiens)
# Sequence (P28223 whole entry): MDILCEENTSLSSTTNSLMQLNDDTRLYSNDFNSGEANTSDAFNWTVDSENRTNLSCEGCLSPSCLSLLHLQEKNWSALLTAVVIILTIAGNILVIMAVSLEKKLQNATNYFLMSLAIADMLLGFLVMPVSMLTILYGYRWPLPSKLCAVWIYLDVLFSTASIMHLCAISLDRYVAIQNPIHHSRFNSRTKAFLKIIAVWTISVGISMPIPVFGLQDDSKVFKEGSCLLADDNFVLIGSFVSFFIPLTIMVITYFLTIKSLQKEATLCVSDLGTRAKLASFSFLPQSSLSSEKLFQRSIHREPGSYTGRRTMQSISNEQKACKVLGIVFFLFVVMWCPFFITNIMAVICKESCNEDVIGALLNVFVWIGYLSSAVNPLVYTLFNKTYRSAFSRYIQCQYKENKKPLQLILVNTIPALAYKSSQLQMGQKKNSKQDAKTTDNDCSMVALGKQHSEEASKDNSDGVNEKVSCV
QUANTITY: Ki (µM)
Please respond with the number in µM and leave the unit unwritten.

**Q:** Missing value: Ki, 5-hydroxytryptamine receptor 2A (Homo sapiens), entry "COC(=O)CCCCCN1CCC(CNC(=O)c2c3n(c4ccccc24)CCCO3)CC1" . Fill in?
**A:** 6.31

----------
# PROTOCOL_DESCRIPTION: Half life in bovine plasma by HPLC
# Format: ADME, Bos taurus
# PARTICULARS: cattle
Parameter half-life: see the listing below.
Please respond with the number in min and leave the unit unwritten.

STRUCTURE_STRING: CCOC(=O)CCCN1CCC(CNC(=O)c2c3n(c4ccccc24)CCCO3)CC1
half-life (min): 30

Then there is this compound:
**Q:** # input compound: "O=C(CCCN1CCC(CNC(=O)c2c3n(c4ccccc24)CCCO3)CC1)OCc1ccccc1" ; wanted: its half-life
**A:** 20

----------
# TARGET_DESC: Delta-type opioid receptor (Homo sapiens, UniProt P41143)
# Sequence (P41143 whole entry): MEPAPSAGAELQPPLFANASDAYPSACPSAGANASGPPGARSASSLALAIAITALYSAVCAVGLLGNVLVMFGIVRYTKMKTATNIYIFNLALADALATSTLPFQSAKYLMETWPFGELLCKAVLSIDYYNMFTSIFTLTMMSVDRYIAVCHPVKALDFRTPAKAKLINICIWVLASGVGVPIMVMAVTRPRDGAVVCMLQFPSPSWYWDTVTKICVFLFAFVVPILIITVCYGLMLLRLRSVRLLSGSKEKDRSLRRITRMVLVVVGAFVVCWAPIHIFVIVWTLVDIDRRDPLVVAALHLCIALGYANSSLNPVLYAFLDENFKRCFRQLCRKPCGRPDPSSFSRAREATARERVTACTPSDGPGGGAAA
# PROTOCOL_DESCRIPTION: Binding affinity to opioid receptor DOR
pKi: −log10 of the molar value.
QUANTITY: pKi

STRUCTURE_STRING: O=C(O)CCCCCN1CCC(CNC(=O)c2c3n(c4ccccc24)CCCO3)CC1
pKi: < 5.00

Then there is this compound:
**Q:** Missing value: pKi, Delta-type opioid receptor (Homo sapiens, UniProt P41143), entry "COC(=O)CCCCCN1CCC(CNC(=O)c2c3n(c4ccccc24)CCCO3)CC1" . Fill in?
**A:** < 5.00

----------
pKi values recorded for Histamine H4 receptor (Homo sapiens)
pKi: −log10 of the molar value.

STRUCTURE_STRING: O=C(O)CCCCCN1CCC(CNC(=O)c2c3n(c4ccccc24)CCCO3)CC1
MEASUREMENT: < 5.00

**Q:** Missing value: pKi, Histamine H4 receptor (Homo sapiens), entry "COC(=O)CCCCCN1CCC(CNC(=O)c2c3n(c4ccccc24)CCCO3)CC1" . Fill in?
**A:** < 5.00

----------
# TARGET_DESC: UniProt:P14416
# Sequence (P14416 whole entry): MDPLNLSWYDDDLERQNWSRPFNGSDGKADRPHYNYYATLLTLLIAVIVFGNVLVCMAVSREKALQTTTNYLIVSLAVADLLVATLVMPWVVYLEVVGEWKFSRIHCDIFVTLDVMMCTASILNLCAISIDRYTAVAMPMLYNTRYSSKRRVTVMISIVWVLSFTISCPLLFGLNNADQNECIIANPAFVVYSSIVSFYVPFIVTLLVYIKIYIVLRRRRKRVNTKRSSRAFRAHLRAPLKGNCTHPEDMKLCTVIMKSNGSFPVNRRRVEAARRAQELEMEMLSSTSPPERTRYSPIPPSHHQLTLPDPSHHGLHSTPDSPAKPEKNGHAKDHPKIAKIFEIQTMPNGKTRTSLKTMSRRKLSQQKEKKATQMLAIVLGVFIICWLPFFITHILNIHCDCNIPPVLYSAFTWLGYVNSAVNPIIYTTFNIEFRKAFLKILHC
# PROTOCOL_DESCRIPTION: Binding affinity to dopamine receptor D2
QUANTITY: Ki

STRUCTURE_STRING: O=C(O)CCCCCN1CCC(CNC(=O)c2c3n(c4ccccc24)CCCO3)CC1
QUANTITY: Ki
MEASUREMENT: > 10 µM

Then there is this compound:
**Q:** # input compound: "COC(=O)CCCCCN1CCC(CNC(=O)c2c3n(c4ccccc24)CCCO3)CC1" ; wanted: its Ki
**A:** > 10 µM

----------
# TARGET_DESC: UniProtKB P35348
# Sequence (P35348 whole entry): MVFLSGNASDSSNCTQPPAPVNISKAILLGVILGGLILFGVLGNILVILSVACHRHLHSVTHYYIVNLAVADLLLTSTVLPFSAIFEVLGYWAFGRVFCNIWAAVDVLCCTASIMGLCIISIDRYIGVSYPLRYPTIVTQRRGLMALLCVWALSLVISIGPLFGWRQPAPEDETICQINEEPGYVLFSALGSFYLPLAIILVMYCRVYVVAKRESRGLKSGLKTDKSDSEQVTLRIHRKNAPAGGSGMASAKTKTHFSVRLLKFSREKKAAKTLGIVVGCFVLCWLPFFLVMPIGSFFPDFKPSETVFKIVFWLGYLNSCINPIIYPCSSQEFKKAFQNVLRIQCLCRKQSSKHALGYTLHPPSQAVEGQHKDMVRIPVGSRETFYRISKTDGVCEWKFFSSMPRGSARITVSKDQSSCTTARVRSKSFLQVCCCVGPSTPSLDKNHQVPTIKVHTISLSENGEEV
# PROTOCOL_DESCRIPTION: Binding affinity to alpha1A adrenergic receptor
Parameter Ki: see the listing below.

STRUCTURE_STRING: COC(=O)CCCCCN1CCC(CNC(=O)c2c3n(c4ccccc24)CCCO3)CC1
TARGET_DESC: UniProtKB P35348
Ki: > 10 µM

**Q:** # input molecule: "O=C(O)CCCCCN1CCC(CNC(=O)c2c3n(c4ccccc24)CCCO3)CC1" ; wanted: its Ki
**A:** > 10 µM
